Recorded measurements of pIC50, one per entry
Target: Avi-KRAS G12R (1-169) GppNHp/RAF1 RBD-3xFLAG (52-151) (Homo sapiens, UniProt P01116, G12R)
Construct: Avi-KRAS G12R (1-169)
Sequence (P01116 1-169 isoform P01116-2 G12R): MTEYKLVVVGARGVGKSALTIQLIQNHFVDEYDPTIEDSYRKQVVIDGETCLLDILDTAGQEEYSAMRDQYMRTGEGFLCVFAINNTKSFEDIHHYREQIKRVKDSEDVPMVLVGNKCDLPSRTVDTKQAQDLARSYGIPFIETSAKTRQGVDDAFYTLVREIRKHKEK
Experiment: Raf1-KRAS G12R-GppNHP disruption HTRF assay (Biological Example 1)
Format: binding
Conditions: KRAS G12R-GppNHp/RAF1 RBD HTRF
pIC50: −log10 of the molar value.

- compound: "CCN(c1nc(OC[C@@]23CCCN2C[C@H](F)C3)nc2c(F)c(-c3ccc(F)c4sc(N)c(C#N)c34)c(C(F)(F)F)cc12)[C@@H]1CCN(C(=O)N(C)C)[C@@H]1C [Compound 488]"
  pIC50: "> 7.00"
- compound: "C[C@@H]1C[C@H](N(C)c2nc(OC[C@@]34CCCN3C[C@H](F)C4)nc3c(F)c(-c4ccc(F)c5sc(N)c(C#N)c45)c(C(F)(F)F)cc23)CN1C(=O)C1CC1 [Compound 443]"
  pIC50: "6.00 to 7.00"
- compound: "CCN(c1nc(OC[C@@]23CCCN2C[C@H](F)C3)nc2c(F)c(-c3ccc(F)c4sc(N)c(C#N)c34)c(C(F)(F)F)cc12)[C@H]1CCN(C(=O)C(C)C)C1 (single isomer, unassigned) [Compound 469]"
  pIC50: "> 7.00"
- compound: "CCN(c1nc(OC[C@@]23CCCN2C[C@H](F)C3)nc2c(F)c(-c3ccc(F)c4sc(N)c(C#N)c34)c(C(F)(F)F)cc12)[C@H]1CCN(C(=O)N(C)C)C1 [Compound 395]"
  pIC50: "> 7.00"
- compound: "[2H]C1([2H])CN2C[C@H](F)C[C@]2(COc2nc(N(C)[C@@H]3CCN(C(=O)C4CC4)[C@@H]3C)c3cc(C(F)(F)F)c(-c4ccc(F)c5sc(N)c(C#N)c45)c(F)c3n2)C1 [Compound 522]"
  pIC50: "> 7.00"
- compound: "N#Cc1c(N)sc2c(F)ccc(-c3c(C(F)(F)F)cc4c(N5CCO[C@H]6C[C@H]65)nc(OC[C@@]56CCCN5C[C@H](F)C6)nc4c3F)c12 [Compound 403]"
  pIC50: "6.00 to 7.00"

* * *

Molecular target: Avi-KRAS G12D (1-169) GppNHp/RAF1 RBD-3xFLAG (52-151) (Homo sapiens, UniProt P01116, G12D)
Construct: Avi-KRAS G12D (1-169)
Sequence (P01116 1-169 isoform P01116-2 G12D): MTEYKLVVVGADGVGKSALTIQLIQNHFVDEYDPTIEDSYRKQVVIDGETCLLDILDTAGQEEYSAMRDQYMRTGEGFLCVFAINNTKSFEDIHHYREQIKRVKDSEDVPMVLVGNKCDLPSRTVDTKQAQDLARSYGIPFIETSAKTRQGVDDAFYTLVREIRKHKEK
Assay: Raf1-KRAS G12D-GppNHP disruption HTRF assay (Biological Example 1)
Assay type: binding
Conditions: KRAS G12D-GppNHp/RAF1 RBD HTRF
pIC50: −log10 of the molar value.
outcome-measure: pIC50

- compound: "CCN(c1nc(OC[C@@]23CCCN2C[C@H](F)C3)nc2c(F)c(-c3ccc(F)c4sc(N)c(C#N)c34)c(C(F)(F)F)cc12)[C@H]1CC(=O)N(CC(F)F)C1"
  outcome-measure: "pIC50"
  test-value: "> 7.00"
- compound: "CCN(c1nc(OC[C@@]23CCCN2C[C@H](F)C3)nc2c(F)c(-c3ccc(F)c4sc(N)c(C#N)c34)c(C(F)(F)F)cc12)[C@H]1CCS(=O)(=O)C1 (atropisomer, axis not shown) [Compound 492]"
  outcome-measure: "pIC50"
  test-value: "> 7.00"
- compound: "CCN(c1nc(OC[C@@]23CCCN2C[C@H](F)C3)nc2c(F)c(-c3ccc(F)c4sc(N)c(C#N)c34)c(C(F)(F)F)cc12)[C@@H]1CCN(C(=O)C2CC2)[C@H]1C"
  outcome-measure: "pIC50"
  test-value: "6.00 to 7.00"
- compound: "CCN(c1nc(OC[C@@]23CCCN2C[C@H](F)C3)nc2c(F)c(-c3ccc(F)c4sc(N)c(C#N)c34)c(C(F)(F)F)cc12)[C@H]1C[C@H]2COC(=O)N2C1 (atropisomer, axis not shown; (aS))"
  outcome-measure: "pIC50"
  test-value: "> 7.00"
- compound: "CN(C)C(=O)c1nnn2c1CN(c1nc(OC[C@@]34CCCN3C[C@H](F)C4)nc3c(F)c(-c4ccc(F)c5sc(N)c(C#N)c45)c(C(F)(F)F)cc13)CC2"
  outcome-measure: "pIC50"
  test-value: "6.00 to 7.00"
- compound: "CN(c1nc(OC[C@@]23CCCN2C[C@H](F)C3)nc2c(F)c(-c3ccc(F)c4sc(N)c(C#N)c34)c(C(F)(F)F)cc12)[C@@H]1C[C@H]2COC(=O)N2C1"
  outcome-measure: "pIC50"
  test-value: "6.00 to 7.00"
- compound: "CCN(c1nc(OC[C@@]23CCCN2C[C@H](F)C3)nc2c(F)c(-c3ccc(F)c4sc(N)c(C#N)c34)c(C(F)(F)F)cc12)[C@@H]1C[C@@H](C)N(C(C)=O)C1 (atropisomer, axis not shown)"
  outcome-measure: "pIC50"
  test-value: "6.00 to 7.00"
- compound: "CN(c1nc(OC[C@@]23CCCN2C[C@H](F)C3)nc2c(F)c(-c3ccc(F)c4sc(N)c(C#N)c34)c(C(F)(F)F)cc12)[C@@H]1CNC(=O)C1"
  outcome-measure: "pIC50"
  test-value: "6.00 to 7.00"
- compound: "CCC(=O)N1CC[C@@H](N(C)c2nc(OC[C@@]34CCCN3C[C@H](F)C4)nc3c(F)c(-c4ccc(F)c5sc(N)c(C#N)c45)c(C(F)(F)F)cc23)[C@@H]1C"
  outcome-measure: "pIC50"
  test-value: "6.00 to 7.00"
- compound: "C[C@@H]1[C@H](N(C)c2nc(OC[C@@]34CCCN3C[C@H](F)C4)nc3c(F)c(-c4ccc(F)c5sc(N)c(C#N)c45)c(Cl)cc23)CCN1C(=O)C1CC1"
  outcome-measure: "pIC50"
  test-value: "6.00 to 7.00"
- compound: "CC(=O)N1CCC2[C@H]1CCCN2c1nc(OC[C@@]23CCCN2C[C@H](F)C3)nc2c(F)c(-c3ccc(F)c4sc(N)c(C#N)c34)c(C(F)(F)F)cc12 (some centres unmarked)"
  outcome-measure: "pIC50"
  test-value: "5.00 to 6.00"

* * *

Target: Avi-KRAS WT (2-169) GTP/RAF1 RBD-3xFLAG (51-131) (Homo sapiens, UniProt P01116)
Construct: Avi-KRAS WT (2-169)
Sequence (P01116 2-169 isoform P01116-2): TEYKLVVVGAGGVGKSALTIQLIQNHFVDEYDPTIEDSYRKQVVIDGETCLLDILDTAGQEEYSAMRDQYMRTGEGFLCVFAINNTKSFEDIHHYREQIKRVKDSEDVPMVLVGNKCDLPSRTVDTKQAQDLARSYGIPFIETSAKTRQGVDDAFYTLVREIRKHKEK
Test: Raf1-KRAS WT-GTP disruption HTRF assay (Biological Example 3)
Assay type: binding
Conditions: KRAS WT, GTP-loaded

- compound: "CCN(c1nc(OC[C@@]23CCCN2C[C@H](F)C3)nc2c(F)c(-c3ccc(F)c4sc(N)c(C#N)c34)c(C(F)(F)F)cc12)[C@@H]1CC(=O)N(C)C1"
  IC50: "100 to 1000 nM"
- compound: "CCN(c1nc(OC[C@@]23CCCN2C[C@H](F)C3)nc2c(F)c(-c3ccc(F)c4sc(N)c(C#N)c34)c(C(F)(F)F)cc12)[C@H]1C[C@H]2[C@@H](C)N(C)C(=O)N2C1 (atropisomer, axis not shown)"
  IC50: "100 to 1000 nM"
- compound: "CCN(c1nc(OC[C@@]23CCCN2C[C@H](F)C3)nc2c(F)c(-c3ccc(F)c4sc(N)c(C#N)c34)c(C(F)(F)F)cc12)[C@H]1CCN(C(=O)OC)C1 (atropisomer, axis not shown) [Compound 541]"
  IC50: "100 to 1000 nM"
- compound: "CCN(c1nc(OC[C@@]23CCCN2C[C@H](F)C3)nc2c(F)c(-c3ccc(F)c4sc(N)c(C#N)c34)c(C(F)(F)F)cc12)C1CCN(C(=O)OC)C1 (stereo partly shown)"
  IC50: "> 10000 nM"
- compound: "CCN(c1nc(OC[C@@]23CCCN2C[C@H](F)C3)nc2c(F)c(-c3ccc(F)c4sc(N)c(C#N)c34)c(C(F)(F)F)cc12)[C@H]1CCN(C(=O)[C@@H]2C[C@@H]2C)C1 (atropisomer, axis not shown)"
  IC50: "100 to 1000 nM"
- compound: "CCN(c1nc(OC[C@@]23CCCN2C[C@H](F)C3)nc2c(F)c(-c3ccc(F)c4sc(N)c(C#N)c34)c(C(F)(F)F)cc12)[C@H]1C[C@H](COC)N(C(=O)C2C[C@@H]2F)C1 (stereo partly shown)"
  IC50: "100 to 1000 nM"
- compound: "CCC(=O)N1C[C@H](N(CC)c2nc(OC[C@@]34CCCN3C[C@H](F)C4)nc3c(F)c(-c4ccc(F)c5sc(N)c(C#N)c45)c(C(F)(F)F)cc23)C[C@@H]1C (atropisomer, axis not shown)"
  IC50: "100 to 1000 nM"
- compound: "CCN(c1nc(OC[C@@]23CCCN2C[C@H](F)C3)nc2c(F)c(-c3ccc(F)c4sc(N)c(C#N)c34)c(C(F)(F)F)cc12)[C@H]1CCN(C(=O)C2CC2(F)F)C1 (stereo partly shown)"
  IC50: "100 to 1000 nM"
- compound: "CN(C)C(=O)[C@@H]1CC[C@@H](N(C)c2nc(OC[C@@]34CCCN3C[C@H](F)C4)nc3c(F)c(-c4ccc(F)c5sc(N)c(C#N)c45)c(C(F)(F)F)cc23)C1 (atropisomer, axis not shown)"
  IC50: "100 to 1000 nM"
- compound: "CCN(c1nc(OC[C@@]23CCCN2C[C@H](F)C3)nc2c(F)c(-c3ccc(F)c4sc(N)c(C#N)c34)c(C(F)(F)F)cc12)[C@H]1CCN(C(=O)C2CC2)[C@@H]1C (atropisomer, axis not shown)"
  IC50: "100 to 1000 nM"
